- target.or.system: Mandelate racemase (Pseudomonas putida, UniProt P11444)
- Sequence (P11444 whole entry): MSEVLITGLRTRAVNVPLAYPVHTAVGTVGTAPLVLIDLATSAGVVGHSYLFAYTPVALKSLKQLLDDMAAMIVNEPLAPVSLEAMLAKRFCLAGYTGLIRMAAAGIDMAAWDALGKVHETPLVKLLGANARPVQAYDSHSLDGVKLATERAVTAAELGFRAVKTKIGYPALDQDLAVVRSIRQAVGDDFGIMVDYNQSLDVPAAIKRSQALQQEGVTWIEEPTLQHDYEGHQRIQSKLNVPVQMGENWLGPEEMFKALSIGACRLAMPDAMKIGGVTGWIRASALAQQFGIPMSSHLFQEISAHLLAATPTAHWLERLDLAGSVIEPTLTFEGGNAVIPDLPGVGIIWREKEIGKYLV
- assay.notes: Inhibitory activity against Mandelate racemase at pH 6.3 at 25 degree C
readout: Ki (mM)
One number for each entry, in mM.

GET /value?item= `O=P(O)(O)C(O)(c1ccccc1)c1ccccc1` &field=Ki returns 5.91

----------
- target.or.system: Mandelate racemase (Pseudomonas putida, UniProt P11444)
- assay.notes: Inhibitory activity against Mandelate racemase at pH 8.7 at 25 degree C
readout: pKi
Give bare numbers, as −log10 of the molar value.

GET /value?item= `O=P(O)(O)C(O)(c1ccccc1)c1ccccc1` &field=pKi returns 2.16
